- Test system: CYP450s
- Experiment description: in vitro
- Format: in vitro ADME, human
- Measurement setup: both sexes, human, pH 7.4, human liver microsomes, gender-mixed; read-out: Km, FNT to MNP (CYP450s-catalyzed)
Readout type: Km (µM)

>>> recorded_measurement("COP(=S)(OC)Oc1ccc([N+](=O)[O-])c(C)c1 [FNT]")
4.08

* * *

- Tested on: CYP450s
- Experiment description: in vitro
- Type: in vitro ADME
- Measurement setup: both sexes, Sprague-Dawley, rat, pH 7.4, rat liver microsomes, gender-mixed; read-out: Km, FNT to MNP (CYP450s-catalyzed)
Readout type: Km (µM)

>>> recorded_measurement("COP(=S)(OC)Oc1ccc([N+](=O)[O-])c(C)c1")
20.5
